Value source: patent US20120172295A1

# test-target: GLP-1 receptor (UniProt P43220 24-463, limits assumed)
# Sequence (P43220 24-463 limits assumed): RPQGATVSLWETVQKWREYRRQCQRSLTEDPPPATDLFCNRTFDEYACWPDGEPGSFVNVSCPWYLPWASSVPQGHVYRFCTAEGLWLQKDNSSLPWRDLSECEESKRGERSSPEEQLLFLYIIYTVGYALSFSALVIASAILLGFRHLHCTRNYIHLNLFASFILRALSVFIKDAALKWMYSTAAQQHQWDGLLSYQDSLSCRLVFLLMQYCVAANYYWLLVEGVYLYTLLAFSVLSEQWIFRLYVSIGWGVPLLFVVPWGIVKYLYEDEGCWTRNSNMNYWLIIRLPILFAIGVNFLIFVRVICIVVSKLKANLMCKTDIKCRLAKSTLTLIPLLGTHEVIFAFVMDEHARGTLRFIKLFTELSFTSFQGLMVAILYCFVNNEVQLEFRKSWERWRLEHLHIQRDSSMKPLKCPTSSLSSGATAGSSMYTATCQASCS
# assay-procedure: cell-based or functional assay
Starred links: 1 amine or outer side, 2 acyl side, 3 side chain; linkers in the order of their positions; H or OH if unused. Non-standard residues stand in square brackets, D forms with d. Groups on a side chain read outwards from the residue. No end group written: not given here. *: point of attachment. γGlu = O=C(O)[C@H](CCC(=O)[*:2])N[*:1]; Palmitoyl = CCCCCCCCCCCCCCCC(=O)*; Aib = CC(C)(N)C(=O)O
Entries and their EC50
Lab note: write values as number then unit, every time.

Query EC50 for H[Aib]EGTFTSDK([γGlu-γGlu-Palmitoyl])SKYLDEQAAKEFIAWLMNT [Chi-2, AIB2, E3, Lys10 γE-γE-C16 (SEQ ID NO: 648)] 4 pM

Note down EC50 recorded for H[dS]QGTFTSDK([γGlu-Palmitoyl])SKYLDEQAAKEFIAWLMNT [Chi-2, d-Ser2, Lys10 γE-C16 (SEQ ID NO: 643)] 1.4 pM
